- Tested on: S. epidermidis strain ATCC 35984
- assayName: Biofilm prevention screen (96-well microplate, crystal violet)
- Assay type: cell-based
- measurementConditions: Staphylococcus epidermidis, ATCC35984, 390 μM, positive = prevention, negative = enhancement of biofilm formation, quadruplicate, read-out: average percentage reduction of biofilm formed relative to DMSO controls
Label Satisfied when inhibition at 390 µM >= -10%; otherwise Not satisfied.

Prompt: Check this compound for inhibition at 390 µM at or above -10%: "CCCCCCNC(=O)[C@@H]1CCN1"
Completion: Satisfied

Prompt: Check this compound for inhibition at 390 µM at or above -10%: "CCCCCCCCCCNC(=O)[C@@H]1CCCN1C(=O)OC(C)(C)C"
Completion: Satisfied

Prompt: Check this compound for inhibition at 390 µM at or above -10%: CCCCCCCCCCNC(=O)[C@@H]1CCCN1 [Compound 32, L-proline n-decyl amide]
Completion: Satisfied

Prompt: Check this compound for inhibition at 390 µM at or above -10%: "CCCCCCCCNC(=O)[C@H]1CCCCN1C(=O)CCCCCCC"
Completion: Not satisfied

Prompt: Check this compound for inhibition at 390 µM at or above -10%: CCCCCCCCNC(=O)C1CCCN1C(C)=O (stereo not shown)
Completion: Not satisfied

Prompt: Check this compound for inhibition at 390 µM at or above -10%: "CCCCCCCCNC(=O)[C@H]1CCCN1"
Completion: Not satisfied

Prompt: Check this compound for inhibition at 390 µM at or above -10%: "CCCCCCCCCCCCNC(=O)[C@H]1CCCN1"
Completion: Satisfied

Prompt: Check this compound for inhibition at 390 µM at or above -10%: "CCCCCCCCNC(=O)[C@H]1CCCCN1C(C)=O"
Completion: Not satisfied

Prompt: Check this compound for inhibition at 390 µM at or above -10%: "CCCCNC(=O)[C@@H]1CCCN1"
Completion: Not satisfied

###

- Tested on: P. fluorescens strain ATCC 13525
- assayName: Biofilm prevention screen (96-well microplate, crystal violet)
- Assay type: cell-based
- measurementConditions: Pseudomonas fluorescens, ATCC13525, 390 μM, positive = prevention, negative = enhancement of biofilm formation, quadruplicate, read-out: average percentage reduction of biofilm formed relative to DMSO controls
assayMetric: inhibition at 390 µM (%)
Please state the figure in %; there is no need to write the unit.

Prompt: Input "CCCCCCCCNC(=O)[C@H]1CCCCN1" , output reported inhibition at 390 µM.
Completion: 21

Prompt: Input "CCCCCCCCNC(=O)[C@H]1CCCN1" , output reported inhibition at 390 µM.
Completion: 54

Prompt: Input "CCCCCCCCNC(=O)[C@@H]1CCN1" , output reported inhibition at 390 µM.
Completion: 59

Prompt: Input "CCCCCCCCNC(=O)[C@H]1CCCCN1C(=O)CCCCCCC" , output reported inhibition at 390 µM.
Completion: 26

Prompt: Input CCCCCCCCNC(=O)C1CCCN1C(C)=O (stereo not drawn) , output reported inhibition at 390 µM.
Completion: -24

Prompt: Input "CCCCCCCCCCNC(=O)[C@@H]1CCN1" , output reported inhibition at 390 µM.
Completion: 99

Prompt: Input "CCCCCCCCNC(=O)[C@@H]1CCN1C(=O)OC(C)(C)C" , output reported inhibition at 390 µM.
Completion: -2

Prompt: Input O=C(NCCCCCCCCCCCCNC(=O)[C@H]1CCCN1)[C@H]1CCCN1 [Compound 226, D-proline 1,12-diaminododecane bisamide] , output reported inhibition at 390 µM.
Completion: 69

Prompt: Input "CCCCCCNC(=O)[C@H]1CCCN1" , output reported inhibition at 390 µM.
Completion: 22

Prompt: Input "CCCCCCCCCCNC(=O)[C@@H]1CCCN1C(=O)OC(C)(C)C" , output reported inhibition at 390 µM.
Completion: -37

Prompt: Input "CCCCCCCCNC(=O)[C@H]1CCCCN1C(=O)OC(C)(C)C" , output reported inhibition at 390 µM.
Completion: 25

Prompt: Input "CCCCCCNC(=O)[C@H]1CCCN1C(=O)OC(C)(C)C" , output reported inhibition at 390 µM.
Completion: -3

Prompt: Input "CCCCCCCCCCCCNC(=O)[C@@H]1CCN1" , output reported inhibition at 390 µM.
Completion: 93

Prompt: Input "CCCCNC(=O)[C@@H]1CCCN1" , output reported inhibition at 390 µM.
Completion: 20

Prompt: Input "CCCCCCCCNC(=O)[C@@H]1CCCN1C(=O)OC(C)(C)C" , output reported inhibition at 390 µM.
Completion: -26

Prompt: Input "CCCCCCCCCCCCNC(=O)[C@@H]1CCN1C(=O)OC(C)(C)C" , output reported inhibition at 390 µM.
Completion: -98

Prompt: Input "CCCCCCCCCCCCNC(=O)[C@H]1CCCN1" , output reported inhibition at 390 µM.
Completion: 92

Prompt: Input "CCCCCCCCNC(=O)[C@@H]1CCCN1" , output reported inhibition at 390 µM.
Completion: 52

Prompt: Input "CCCCNC(=O)[C@H]1CCCN1C(=O)OC(C)(C)C" , output reported inhibition at 390 µM.
Completion: -7

Prompt: Input "CCCCCCNC(=O)[C@@H]1CCCN1" , output reported inhibition at 390 µM.
Completion: 19

Prompt: Input "CCCCCCCCCCNC(=O)[C@H]1CCCN1C(=O)OC(C)(C)C" , output reported inhibition at 390 µM.
Completion: -40

Value source: patent US7018642B2
